As shown below, each of these compounds has a reported TGI value.
Tested on: OVCAR-8 ovarian
method: NCI tumour cell line growth inhibition, 48 h
measure: TGI

1) O=P(O)(NCCCl)NCCCl | > 100 µM
2) CC(C)(CN1CCCCC1)C(/C=C/c1ccc(Cl)c(Cl)c1)=N\NC(=O)N/N=C(/C=C/c1ccc(Cl)c(Cl)c1)C(C)(C)CN1CCCCC1 | 3.38 µM
3) CCOC(=O)C1=C(NC(C)(C)C)OC/C1=N\NC(=O)Cc1ccccc1 | > 100 µM

* * *

Test system: CAKI-1 renal
method: NCI tumour cell line growth inhibition, 48 h
measure: TGI (µM)

1) CN(C)CCC=C1c2ccccc2C=Cc2ccccc21 | 35.7
2) COc1ccc2[nH]c(-c3ccccc3)c(/C=C(\C#N)S(=O)(=O)c3ccccc3)c2c1 | 43.4

* * *

Tested on: HL-60(TB) leukemia
method: NCI tumour cell line growth inhibition, 48 h
As shown below, each of these molecules has a reported TGI value.
measure: TGI (µM)

1. CCn1cc(C(=O)O)c(=O)c2cc(F)c(N3CCN(S(=O)(=O)c4ccc(Cl)cc4)CC3)cc21 | 4.81
2. O=C(NCc1ccc(Cl)cc1Cl)c1ccc(NC2=C(Cl)C(=O)N(Cc3ccccc3)C2=O)cc1 | 60.8
3. C1CSCCCSCCCSCCCSCCCSC1 | 36.5

* * *

Tested on: SR leukemia
method: NCI tumour cell line growth inhibition, 48 h
As shown below, each of these molecules has a reported TGI value.
measure: TGI

1) COc1ccc(/C=N/c2nc3cc4sc(/N=C/c5ccc(OC)cc5)nc4cc3s2)cc1 | > 100 µM
2) N#CC(/C(CCCC(=O)Nc1cccc([N+](=O)[O-])c1)=N/NC(=O)c1cc2ccccc2cc1O)c1ccccc1 (stereo not drawn) | > 100 µM
3) COc1ccc(-c2cc(=O)c3c(OC)cccc3o2)c(OC)c1OC | > 100 µM

* * *

Test system: SNB-75 CNS
method: NCI tumour cell line growth inhibition, 48 h
*1 amine or outer side, *2 acyl side, *3 side chain or, on linkers, in order; H or OH if unused. Where a SMILES comes first, the peptide text is derived from it. Bridges are numbered along the chain shown (N, C = ends). [ ]: non-standard residue; d: D form. Adda = CO[C@@H](Cc1ccccc1)[C@@H](C)/C=C(C)/C=C/[C@H](N[*:1])[C@H](C)C(=O)[*:2]; dAsp(3S-Me) = C[C@H](C(=O)[*:3])[C@@H](N[*:1])C(=O)[*:2]; d(γGlu) = O=C(O)[C@@H](CCC(=O)[*:2])N[*:1]; NMeDha = C=C(NC)C(=O)O
measure: TGI

1) O=C1CN2C(Cl)(Cl)C2(c2ccccc2)c2cc(Cl)ccc2N1CC1CC1 (stereo unspecified) | 94.8 µM
2) CN1C2CCC1CC(CC(=O)NC(c1ccc(F)cc1)c1ccc(F)cc1)C2 (stereo unspecified) | > 100 µM
3) CN(Cc1cnc2c(n1)C(N)=NN(N)N2)c1ccc(C(=O)NC(CCP(=O)(O)O)C(=O)O)cc1 (stereo unspecified) | > 100 µM
4) Nc1ccc(C(c2ccccc2)(c2ccccc2)c2ccccc2)cc1 | 53.9 µM
5) CNC(=S)Nc1sc2c(c1C#N)CCCC2 | > 75 µM
6) C=C1C(=O)N[C@H](C)C(=O)N[C@@H](CC(C)C)C(=O)N[C@@H](C(=O)O)[C@H](C)C(=O)N[C@@H](CCCN=C(N)N)C(=O)N[C@@H](/C=C/C(C)=C/[C@H](C)[C@H](Cc2ccccc2)OC)[C@H](C)C(=O)N[C@@H](C(=O)O)CCC(=O)N1C (R[Adda][d(γGlu)][NMeDha][dA]L[dAsp(3S-Me)]-OH; lactam N-7) | > 5 µM
7) O=C(Cn1ccnc1[N+](=O)[O-])c1ccccc1 | > 100 µM
8) CC(C)c1cc(Cl)nc(Cl)n1 | > 100 µM
9) Cn1c(O)c(C2=Nc3ccccc3C2=O)c2ccccc21 | > 100 µM
10) CCOC(=O)Nn1c(C)nnc1CC#N | > 100 µM
11) O=c1c2cc([N+](=O)[O-])ccc2[nH]n1Cc1ccccn1 | > 100 µM
12) CN(C)c1ccc(C(=O)NCCCCCCC(=O)NO)cc1 | 2.2 µM
13) COc1ccc(-c2cc(=O)c3c(OC)cccc3o2)c(OC)c1OC | 74.4 µM
14) C[C@@H]1C[N+]2([O-])[C@H]3C4=CCC[C@@H]4CC[C@H]3[C@@]3(C)OC(=O)CC[C@]34CC[C@H]1[C@@H]42 (stereo partly specified) | > 60 µM
15) Cc1cc2[nH]c(Cl)c(/C=C3\C(=O)Nc4ccccc43)c2cc1O | 16.5 µM
16) [C-]#[N+][C@@H]1C2[C@H](CC[C@@]1(C)O)C(=C)CC[C@@H]2[C@@]1(C)CC[C@H](Cl)C(C)(C)O1 (stereo partly specified) | > 100 µM
17) O=c1c2cc(F)ccc2sc2c(N3CCNCC3)nc3ccccc3c12 | 2.8 µM
18) CN1C(=O)CC2CCCN2C1=O (stereo unspecified) | > 100 µM
19) Cn1c(=O)[nH]c2nccnc2c1=O | > 10 µM
20) COc1cc(C2SC(N)=Nc3c2c(C)nn3C(=O)c2ccc(Cl)cc2)cc(OC)c1OC (stereo unspecified) | > 10 µM
21) COc1nc(N)c(C#N)c(C#N)c1C#N | > 10 µM
22) Cc1ncc([N+](=O)[O-])n1CCNC(=O)CCCn1ccnc1[N+](=O)[O-] | > 100 µM
23) C1CSCCCSCCCSCCCSCCCSC1 | > 93.2 µM
24) FC(F)(F)c1nnn[n-]1.[Au+].c1ccc([PH+](c2ccccc2)c2ccccc2)cc1 | 22.1 µM
25) O=C(/C=C/c1ccc(Cl)cc1)/C=C/c1cc2ccccc2[nH]c1=O | 24.7 µM
26) CC(C)[C@]12O[C@H]1[C@@H]1O[C@@]13[C@@]1(C)CCC4=C(COC4=O)[C@@H]1C[C@@H]1O[C@@]13C2=O | 0.0444 µM
